I'd appreciate it if you could supply fraction unbound at 24 h values for the items below.
- assay.notes: Protein binding assay (equilibrium dialysis)
- Assay type: in vitro ADME, rat
- condition.parameters: rat plasma; equilibrium dialysis 24 h, 37 °C; 2 μmol/L alkaloids, 4 μmol/L saponins; read-out: fu-plasma (unbound fraction)
Numbers only.

Worked set:
Req: Specify measured fraction unbound at 24 h for CC(C)=CCC[C@](C)(O[C@@H]1O[C@H](CO)[C@@H](O)[C@H](O)[C@H]1O)[C@H]1CC[C@]2(C)[C@@H]1[C@H](O)C[C@@H]1[C@@]3(C)CC[C@H](O)C(C)(C)[C@@H]3[C@@H](O[C@@H]3O[C@H](CO)[C@@H](O)[C@H](O)[C@H]3O[C@@H]3O[C@@H](C)[C@H](O)[C@@H](O)[C@H]3O)C[C@]12C [Compound C9, Ginsenoside Re] .
Resp: 0.874

Req: Specify measured fraction unbound at 24 h for O=C1CCC[C@@H]2[C@H]3CCCN4CCC[C@@H](CN12)[C@@H]34 .
Resp: 0.927

Continuing:
Req: Specify measured fraction unbound at 24 h for CC(C)=CCC[C@](C)(O[C@@H]1O[C@H](CO[C@@H]2O[C@H](CO)[C@@H](O)[C@H](O)[C@H]2O)[C@@H](O)[C@H](O)[C@H]1O)[C@H]1CC[C@]2(C)[C@@H]1[C@H](O)C[C@@H]1[C@@]3(C)CC[C@H](O[C@@H]4O[C@H](CO)[C@@H](O)[C@H](O)[C@H]4O[C@@H]4O[C@H](CO)[C@@H](O)[C@H](O)[C@H]4O)C(C)(C)[C@@H]3CC[C@]12C [Compound D5, Ginsenoside Rb1] .
Resp: 0.0096
